- Experimental System: Intestinal-type alkaline phosphatase (Homo sapiens) (UniProt P09923)
- Sequence (P09923 whole entry, looked up): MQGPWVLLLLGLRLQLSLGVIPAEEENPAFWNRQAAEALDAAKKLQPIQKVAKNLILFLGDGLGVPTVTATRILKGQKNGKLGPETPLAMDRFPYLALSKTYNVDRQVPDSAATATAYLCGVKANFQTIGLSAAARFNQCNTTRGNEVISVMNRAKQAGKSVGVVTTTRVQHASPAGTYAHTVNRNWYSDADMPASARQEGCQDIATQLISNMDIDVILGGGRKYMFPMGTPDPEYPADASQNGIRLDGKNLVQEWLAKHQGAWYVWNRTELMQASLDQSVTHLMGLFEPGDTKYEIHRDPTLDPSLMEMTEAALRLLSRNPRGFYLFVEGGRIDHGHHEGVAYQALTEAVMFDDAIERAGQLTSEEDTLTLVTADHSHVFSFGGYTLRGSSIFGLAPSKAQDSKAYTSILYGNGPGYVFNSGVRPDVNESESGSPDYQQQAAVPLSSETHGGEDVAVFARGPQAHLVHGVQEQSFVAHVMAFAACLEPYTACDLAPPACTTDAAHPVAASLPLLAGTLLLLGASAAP
- Protocol Details: human IAP activators, primary screen, biochemical, luminescence, uHTS (AID 2524)
- Measurement Parameters: purified human IAP, CDP-Star luminescence, 30 min; at 10 µM; 1 = vehicle-only enzyme, 0 = enzyme-free background
The whole screen tested about 330,000 compounds, of which about 540 (0.16%) were called active.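 Rule for the calls: active = activation factor of the enzyme at least 2-fold when tested at 20 µM; inactive = the rest.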 What follows is part of a selection rich in actives, with near analogues and random picks from the rest.
The categories you may choose from are TRUE = active, FALSE = inactive

Which result was noted for this molecule in the test: CCCCN(CCCC)CCNC(=O)CN1C(=O)COc2ccc(S(=O)(=O)N3CCOCC3)cc21 FALSE

Test call, this molecule: COc1cccc(/C=N\NC(=O)C2=NNC(=O)C2C)c1O (stereo not given) TRUE

Hello, I am checking results. What call was entered for O=C(NCC(=O)N1CCC2(CC1)NCCc1[nH]cnc12)c1ccc(Br)cc1 ? FALSE

Write down the call the test reported for this molecule. Item: CC(C)N(C(=O)CSc1nc(COc2ccccc2)nc2ccccc12)C(C)C FALSE

Kindly provide the recorded test outcome for the following molecule: CCCc1cc(=O)[nH]c(SCC(=O)Nc2ccc(C(=O)Nc3ccccc3OC)cc2)n1 FALSE

Hi, sorry to bother you, what did the test record for C#CCOCCOCCOCCNc1nc(N2CCN(C(=O)CCCCCCCCCCNC(=O)Cn3cc(CCCCCN)nn3)CC2)nc(N2CCN(C(=O)CCCCCCCCCCNC(=O)[C@H](CO)n3cc(CCCSC)nn3)CC2)n1 ? FALSE

Tell me the assay call for CC(C)CC(=O)Nc1nnc(S(=O)(=O)N(C)c2ccc(Cl)cc2)s1 please. FALSE

====

Kindly supply the reported activation factor values for the records listed here.
- Experimental System: Intestinal-type alkaline phosphatase (Homo sapiens)
- Protocol Details: human IAP activators, primary screen, biochemical, luminescence, uHTS (AID 2524)
- Measurement Parameters: purified human IAP, CDP-Star luminescence, 30 min; at 10 µM; hits give high values; 1 = vehicle-only enzyme, 0 = enzyme-free background
Screen size: about 330,000 compounds; about 540 (0.16%) were called active. The entries come from a sample that favours actives as a whole.
One number for each entry.

Some solved cases for reference:
Record for COc1ccc(C(=O)NC2CC(C)(C)Cc3c2cnn3-c2ccccc2)c(OC)c1 (stereo unspecified) under target or system Intestinal-type alkaline phosphatase (Homo sapiens): activation factor reported as 1.07

Tested on Intestinal-type alkaline phosphatase (Homo sapiens): O=C(Nc1ccon1)c1nc[nH]c1C(=O)NCc1ccccc1 . Observed activation factor: 2.43

Readout activation factor for CN(CCc1ccccn1)C(=O)CCC1CCCN(Cc2ccccc2OC(F)F)C1 (stereo unspecified) , test system Intestinal-type alkaline phosphatase (Homo sapiens), was 1.17

Record COCCNS(=O)(=O)c1cc(Br)ccc1OC / Intestinal-type alkaline phosphatase (Homo sapiens), activation factor recorded as 0.874

Field activation factor (system: Intestinal-type alkaline phosphatase (Homo sapiens)) for entry Cc1ccccc1N1C(=O)C(Oc2ccc(Cl)cc2)C1CNCC1CCCO1 (stereo unspecified) = 0.957

Look up activation factor for the entries below, preserving their order.
1. Cc1cccc(NC(=O)c2nc[nH]c2C(=O)NCC(=O)OCc2ccccc2)c1
2. O=C(NCCC1CCCCN1S(=O)(=O)c1ccc(Cl)cc1)C(=O)NCc1ccco1 (stereo unspecified)
3. NS(=O)(=O)c1cccc(NC(=O)COC(=O)c2cc([N+](=O)[O-])ccc2N2CCCC2)c1
4. Cc1ccc(OCCCCN2CCCCC2)c(Br)c1
5. C=CCOc1cccc(CNn2cn[nH]c2=S)c1
6. Cc1ccc(O)c(-c2cc(C(=O)Nc3c(C)n(C)n(-c4ccccc4)c3=O)[nH]n2)c1

1: 1.09; 2: 1.03; 3: 0.907; 4: 1.08; 5: 0.895; 6: 1.84

====

- Experimental System: Intestinal-type alkaline phosphatase (Homo sapiens)
- Protocol Details: human IAP activators, primary screen, biochemical, luminescence, uHTS (AID 2524)
- Measurement Parameters: purified human IAP, CDP-Star luminescence, 30 min; at 10 µM; hits give high values; 1 = vehicle-only enzyme, 0 = enzyme-free background
Hit rate of the full screen: of about 330,000 compounds, about 540 (0.16%) were called active. The entries come from a sample that favours actives as a whole.
So basically: activation factor at 1 or higher? That is TRUE. Lower than 1? That is FALSE.

Worked examples follow.
Identify whether the reported activation factor of the following molecule is 1 or greater: O=C(COc1ccc(Cl)cc1)NCCS(=O)(=O)N1CCN(c2ccc(F)cc2)CC1 FALSE

Reported activation factor at or above 1? Cc1cn(C2C=CC(CO)O2)c(=O)[nH]c1=O (stereo unspecified) FALSE

Confirm if activation factor reported for the molecule COc1ccc(CC(=O)N2N=C(C)CC2(O)C(F)(F)F)cc1 (stereo unspecified) is 1 or above. TRUE

--- query ---
Could you tell me if the measured activation factor of Cc1ccccc1C(=O)NCC(c1ccco1)N1CCc2ccccc21 (stereo unspecified) reaches 1 or more? FALSE

====

Answer each item with its documented activation factor.
- Experimental System: Intestinal-type alkaline phosphatase (Homo sapiens) (UniProt P09923)
- Protocol Details: human IAP activators, primary screen, biochemical, luminescence, uHTS (AID 2524)
- Measurement Parameters: purified human IAP, CDP-Star luminescence, 30 min; at 10 µM; hits give high values; 1 = vehicle-only enzyme, 0 = enzyme-free background
Among all 330,000 compounds or so, about 540 (0.16%) were called active. Only a selection was taken, and actives are over-represented in it overall.
Answers are plain numbers.

Study these solved cases before continuing.
response.value for O=C(CSc1nnnn1C1CCCC1)Nc1ccc2c(c1)OCCO2 (field: activation factor) = 0.96

Lookup result for COc1ccc(C2CC(c3ccccc3)=NN2C(=O)CSc2nccc(=O)[nH]2)cc1 (stereo not given) ; measured activation factor: 0.925

Form: compound = CCOC(=O)C1CCN(C(=O)Nc2cccc(OC)c2)CC1 ; activation factor = 1.01

get_value(item= Cc1ccc2cc(CCNC(=O)c3c(-c4ccccc4Cl)noc3C)c(=O)[nH]c2c1 , readout=activation factor) returns 0.983

Shift focus to the following entry.
Looking up CCCCN(CC(=O)NC(C)(C)C)C(=O)C(=O)Nc1ccc2c(c1)OCCO2 , I see its activation factor listed as 1.04

====

- Experimental System: Intestinal-type alkaline phosphatase (Homo sapiens)
- Protocol Details: human IAP activators, primary screen, biochemical, luminescence, uHTS (AID 2524)
- Measurement Parameters: purified human IAP, CDP-Star luminescence, 30 min; at 10 µM; hits give high values; 1 = vehicle-only enzyme, 0 = enzyme-free background
Screen size: about 330,000 compounds; about 540 (0.16%) were called active. What follows is part of a selection rich in actives, with near analogues and random picks from the rest.
Measurement Type: activation factor
Numbers only.

Completed entries (count: 5):
Form field activation factor, entry CCCCCc1c(C)nc(N2CCN(Cc3ccc4c(c3)OCO4)CC2)[nH]c1=O : 0.962

The molecule listed as CC(=O)N1CCN(C(=O)c2cccc(S(=O)(=O)Nc3ccc(C)cc3)c2)CC1 shows activation factor equal to 1.16

COC(=O)[C@]1(CC(C)C)N[C@H](c2ccc(SC3CCCCC3)cc2)[C@@H]2C(=O)N(C)C(=O)[C@@H]21 has a reported activation factor of 0.874

Recorded result, Cc1ccc(CNCc2ccc3c(c2)OCO3)c(C)c1 , activation factor: 1.06

Lab note: measured activation factor of CC1CC(C)(C)n2c(O)c(N=NC(N)=S)c3cccc1c32 (stereo not given) was 0.927

For every listed record, write down its activation factor.
1. Cc1ccc(C)c(CN2CCC(CNC(=O)Nc3ccc(C)c(F)c3)CC2)c1
2. Cc1cccc(NS(=O)(=O)c2cccc(C(=O)NNC(=O)c3ccccc3O)c2)c1
3. CCCCCC1CC(COc2ccccc2)OC1=O (stereo not given)

1: 1.49; 2: 2.18; 3: 0.9

====

- Experimental System: Intestinal-type alkaline phosphatase (Homo sapiens) (UniProt P09923)
- Protocol Details: human IAP activators, primary screen, biochemical, luminescence, uHTS (AID 2524)
- Measurement Parameters: purified human IAP, CDP-Star luminescence, 30 min; at 10 µM; hits give high values; 1 = vehicle-only enzyme, 0 = enzyme-free background
In all, about 330,000 compounds went through this assay and about 540 (0.16%) were called active. The sample as a whole holds a higher share of actives than the screen did.
Measurement Type: activation factor

Known activation factor results, listed for orientation:
The molecule COc1cccc(/C=N/NC(=O)c2[nH]nc3c2CCc2ccccc2-3)c1O showed activation factor equal to 2.64 (active)

Per the records, this molecule ( COc1cccc2cc(C(C)N(CCCN3CCOCC3)C(=O)Nc3ccc(Cl)cc3)oc12 (stereo not drawn) ) has activation factor equal to 1.05 (inactive)

Kindly note the recorded activation factor for COc1cccc(NC(=O)CN2CCN(CC(=O)Nc3ccccc3Cl)CC2)c1 , which is 0.935 (inactive)

Briefly, activation factor measured for CCCN=C1NC(=O)C(CC(=O)NCCc2ccc(OC)c(OC)c2)S1 (stereo not drawn) : 1.04 (inactive)

molecule CC(C)NC(=O)NCCCCCCS(C)=O (stereo not drawn) , activation factor observed: 1.08 (inactive)

Would you mind giving activation factor for every molecule in the list below?
1. CN(C)C(CNC(=O)c1cccc(C#N)c1)c1ccco1 (stereo not drawn)
2. Cc1ccc(OCC(=O)Nc2ccccc2C(=O)NC2CC2)cc1
3. COc1ccc(N2C(=O)NC(NS(=O)(=O)c3ccc(Cl)cc3)(C(F)(F)F)C2=O)cc1 (stereo not drawn)
4. CCN(CC)S(=O)(=O)c1ccc(Cl)c(C(=O)NCCN2CCOCC2)c1
5. CC(C)(C)OC(=O)NCCCCCNC(=O)c1nc[nH]c1C(=O)NCc1ccccc1

1. 0.873 (inactive)
2. 0.945 (inactive)
3. 0.861 (inactive)
4. 1.07 (inactive)
5. 1.26 (inactive)

Hello, I would appreciate it if you could give activation factor for each entry below.
1. COc1cc(S(=O)(=O)Nc2ncn[nH]2)ccc1Cl
2. O=C(CSCc1ccccc1Cl)NNC(=O)c1ccccc1
3. Cc1ccc(NC(=O)c2nc[nH]c2C(=O)N[C@@H](CCCCNC(=O)OC(C)(C)C)C(=O)OC(C)(C)C)cc1

0.999 (inactive)
1.25 (inactive)
1.3 (inactive)

Report activation factor for each item below.
1. CC(=O)NC1C(Oc2ccc(C=O)cc2)OC(COC(C)=O)C(OC(C)=O)C1OC(C)=O (stereo not drawn)
2. CC(NCC(=O)Nc1cc(Cl)cc(Cl)c1)c1ccccc1 (stereo not drawn)
3. CN(c1ccccc1)S(=O)(=O)c1cccc(NC(=O)Cc2ccc(Cl)cc2)c1

["1.03 (inactive)", "1.03 (inactive)", "1.01 (inactive)"]
